Source listed as paper PMC12394722.

target: DDX3X N-IDR (human, UniProt O00571 1-132); assay: ITC; 50 mM KCl; dimer concentration; EMSA: 20 mM K-phosphate pH 7.0, 125 mM KCl, 1 mM DTT, 0.005% Tween-20, 10% glycerol (1 mM ATP-Mg for MBP-FL/Core-C), gel at room temperature; ITC: 20 mM K-phosphate pH 7.0, 50 mM KCl, 25 C; NMR: 200 mM KCl (also 120 mM), 10 C, 50 uM; details: protein: recombinant; tags: His6-SUMO tag cleaved (Ulp1); parallel G4, dimer of 2 strands
Sequence (O00571 1-132): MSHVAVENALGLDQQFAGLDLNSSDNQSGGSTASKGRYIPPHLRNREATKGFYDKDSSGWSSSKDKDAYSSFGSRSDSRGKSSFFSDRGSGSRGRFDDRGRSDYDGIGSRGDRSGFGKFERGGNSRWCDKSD
experimental-endpoint: Kd (µM)
Answers are plain numbers, in µM.

### Prompt Look up Kd: UAGGGUUAGGGU (structured_RNA) [telomeric GQ RNA]
### Response 3.4
